Readings of apparent KD of MS2 coat protein for the listed sequences
- Test system: MS2 coat protein
- Test Name: apparent KD of MS2 coat protein; designed switch direction (-1 OFF switch, 1 ON switch): 1; higher = weaker reporter binding
- Details: input ligand: none
Answer format: numeric, nM implied, no suffix.

1. AGGCUGAGUCGAGGAUAUGAUCUUCAUAUAAUAACAUGAGGAUCACCCAUGUAUAAUUACAUGGAUCAGAAGGCGACUCAGCCA [SSNG2/13-B1] (Eterna round: R96, puzzle: Same State NG 2) :: 584
2. GUGAAGAAUUAAGGAUAUUGAAUACAUAUGUUUAACAUGAGGAUCACCCAUGUGGGUUGCGGUAUCGAGAAGGUAAAUUACUAG [salish99_SSNG2_r04_031] (Eterna round: R96, puzzle: Same State NG 2) :: 118
3. GAGAGAUGAUUAGGAUAUCCGGUGAUAAUGAUAGGAGAAGGAAUUGACAUGAGGAUCACCCAUGUGGGAAUAAUCCAGAGAGAG [Parity 23 - Jieux - Same State NG 1] (Eterna round: R96, puzzle: Same State NG 1) :: 107
4. AAAAUUGAAUUACAUCUGCUCGUCAUACAACAUGAGGAUCACCCAUGUAACAUCAAACAACCAACCAAACACAAAUC [Ceeslage] (Eterna round: R96, puzzle: Sensor for hsa-mir-208a) :: 22.3
5. GUUACAUGAGGAUCACCCAUGUAUGUGUGGGAGUAAGUGUCUUAGGAUAUCUGUUAUUUGAUUUAAGAGAAGGAAGAUUGUUGU [JMF's solution 40] (Eterna round: R96, puzzle: Same State NG 3) :: 92.8
6. CCGUAAUAUGGAGGAUAUGGAGCCUUAUUGGCUCCAGAAGGUCAUAACACAUGAGGAUCACCCAUGUCGGCGGUCAAUAGACCG [Eli NG1ss - 76] (Eterna round: R96, puzzle: Same State NG 1) :: 68.3
7. GGCCUCUGUCAAGGAUAUGCUACCGUUUCGGUAGCAGAAGGUGAUCACAUGAGGAUCACCCAUGUUUAGGCCAACAGGCCCGCC (Eterna round: R96, puzzle: Same State NG 1) :: 1070
8. GCGUUUAACGUAGGAUAUCGAGCUACAUGAGGAUCACCCAUGUCUUUGUAAAGUUUUUUUAAUUCCGAGAAGGACGUAUUGCAU [JR_SSNG2_Sub073] (Eterna round: R96, puzzle: Same State NG 2) :: 35.9

What apparent KD of MS2 coat protein value was documented for this sequence, GGUAGGUUACUACCAAUCUACAUGAGGAUCACCCAUGUGUAGGAGGAUAUGGUACCUAUUUGGUACCAGAAGGCCUGAUUAAUU [Fiskers NG3ss - 8] (Eterna round: R96, puzzle: Same State NG 3) ?
247

Now the same for AGAGGAGGCGCAGGAUAUACGACGGAGGACGUGGUAGAAGGGUGCAUGCGAUGACAUGAGGAUCACCCAUGUACCGCGCGACGA [AK SSNG1-V2-16] (Eterna round: R96, puzzle: Same State NG 1)
78.9

Now the same for GCUAGAAUUAAAGCCAACAUGAGGAUCACCCAUGUAUGUUGGCAGGAUAUCGUUUGCUUUGCAAACGAGAAGGGCUAAACUAGC [JL SSNG3 1.02] (Eterna round: R96, puzzle: Same State NG 3)
182

Now the same for AUUUUUCAUGCAGGAUAUGAUUAACAUGAGGAUCACCCAUGUGGUGUUGUGAGUAAGGAGAGUGAUCAGAAGGGCAUUUUUUUU [JMF's solution 94] (Eterna round: R96, puzzle: Same State NG 2)
503
